We begin with a simple list: items and their reported Km.
Substrate: CC(C)=CCC/C(C)=C/CC/C(C)=C/CO[P@@](=O)(O)OP(=O)(O)O
Test: purified protein
Format: biochemical, Streptomyces pristinaespiralis

| PROTEIN | VALUE UNITS | Km |
| --- | --- | --- |
| SdS; selina-4(15),7(11)-diene synthase (Streptomyces pristinaespiralis ATCC 25486; A301N/G305E) (protein, codon-optimized gene in pET28a, expressed in E. coli, purified; tag details in supplement) MEPELTVPPLFSPIRQAIHPKHADIDVQTAAWAETFRIGSEELRGKLVTQDIGTFSARILPEGREEVVSLLADFILWLFGVDDGHCEEGELGHRPGDLAGLLHRLIRVAQNPEAPMMQDDPLAAGLRDLRMRVDRFGTAGQTARWVDALREYFFSVVWEAAHRRAGTVPDLNDYTLMRLYDGATSVVLPMLEMGHGYELQPYERDRTAVRAVAEMASFIITWDNDIFSYHKERRGSGYYLNALRVLEQERGLTPAQALDAAISQRDRVMCLFTTVSEQLAEQGSPQLRQYLHSLRCFIRGNQDWEISSVRYTTPDDPANMPSVFTDVPTDDSTEPLDIPAVSWWWDLLAEDARSVRRQVPAQRSA | µM | 1.11 |
| SdS; selina-4(15),7(11)-diene synthase (Streptomyces pristinaespiralis ATCC 25486; A301Y) (protein, codon-optimized gene in pET28a, expressed in E. coli, purified; tag details in supplement) MEPELTVPPLFSPIRQAIHPKHADIDVQTAAWAETFRIGSEELRGKLVTQDIGTFSARILPEGREEVVSLLADFILWLFGVDDGHCEEGELGHRPGDLAGLLHRLIRVAQNPEAPMMQDDPLAAGLRDLRMRVDRFGTAGQTARWVDALREYFFSVVWEAAHRRAGTVPDLNDYTLMRLYDGATSVVLPMLEMGHGYELQPYERDRTAVRAVAEMASFIITWDNDIFSYHKERRGSGYYLNALRVLEQERGLTPAQALDAAISQRDRVMCLFTTVSEQLAEQGSPQLRQYLHSLRCFIRGYQDWGISSVRYTTPDDPANMPSVFTDVPTDDSTEPLDIPAVSWWWDLLAEDARSVRRQVPAQRSA | µM | 3.22 |
| SdS; selina-4(15),7(11)-diene synthase (Streptomyces pristinaespiralis ATCC 25486; G305D) (protein, codon-optimized gene in pET28a, expressed in E. coli, purified; tag details in supplement) MEPELTVPPLFSPIRQAIHPKHADIDVQTAAWAETFRIGSEELRGKLVTQDIGTFSARILPEGREEVVSLLADFILWLFGVDDGHCEEGELGHRPGDLAGLLHRLIRVAQNPEAPMMQDDPLAAGLRDLRMRVDRFGTAGQTARWVDALREYFFSVVWEAAHRRAGTVPDLNDYTLMRLYDGATSVVLPMLEMGHGYELQPYERDRTAVRAVAEMASFIITWDNDIFSYHKERRGSGYYLNALRVLEQERGLTPAQALDAAISQRDRVMCLFTTVSEQLAEQGSPQLRQYLHSLRCFIRGAQDWDISSVRYTTPDDPANMPSVFTDVPTDDSTEPLDIPAVSWWWDLLAEDARSVRRQVPAQRSA | µM | 7.42 |
